Ref: the supplement of paper PMC7125110

Reported self-cleavage kobs at 160 uM GlcN6P values are given for each entry in this list.
B1: glmS ribozyme (parent)
chain: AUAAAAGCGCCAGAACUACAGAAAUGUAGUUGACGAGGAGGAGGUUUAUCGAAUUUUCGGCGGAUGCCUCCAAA

- Variants of: B1
- test-method-notes: self-cleavage kobs at 160 uM GlcN6P; higher = faster cleavage; RNA array
- run-conditions: with glucosamine-6-phosphate
Fewer inactive variants are shown than the library holds.
Use s⁻¹ as the unit, but write only the number.

>>> measured_number("A6G C50G C68U")
"9.16e-05"
>>> measured_number("G13U G32A")
0.000153
>>> measured_number("A12U G29A")
0.000905
>>> measured_number("U31A U69C")
0.000243
>>> measured_number("C50G G59C")
"6.56e-05"
>>> measured_number("G13U A53U")
"5.58e-05"
>>> measured_number("A42G U54G")
0.00287
>>> measured_number("A39C U55G")
0.000315
>>> measured_number("U31A U65G")
0.000211
>>> measured_number("A53U G66A")
0.000827

Sample A53U C67A ; self-cleavage kobs at 160 uM GlcN6P observed: 0.000559

Sample A15U U56A ; self-cleavage kobs at 160 uM GlcN6P observed: 0.000209

Sample A39C U55C ; self-cleavage kobs at 160 uM GlcN6P observed: 0.000325

Sample U47G U55C ; self-cleavage kobs at 160 uM GlcN6P observed: 0.00147

Sample A14C U47G ; self-cleavage kobs at 160 uM GlcN6P observed: 6.35e-05
